System: Vero E6
Experiment: cell viability relative to DMSO; higher = less toxic
Details: 72 h; 10 nM
property.measured: cell viability (%)
Numbers only here, please. The scale is %.

Query :: // cell viability lookup, key: N#C/C(=C\c1ccc(O)c(O)c1)C(=O)Nc1ccccc1
Result :: 100

Query :: And what about the compound COc1ccc2[nH]c3c(-c4cccc5ccccc45)nccc3c2c1 ?
Result :: 101

Query :: Queued: COc1ccc(Cc2nccc3cc(OC)c(OC)cc23)cc1OC
Result :: 105

Query :: Try this compound too: CCOC(=O)[C@H]1O[C@@H]1C(=O)N[C@@H](CC(C)C)C(=O)NCCC(C)C
Result :: 109

Query :: CC[N+]1(C)CCCC(OC(=O)C(O)(c2ccccc2)c2ccccc2)C1 (centres undefined) [pipenzolate] ?
Result :: 101

Query :: Item: FC(F)(F)Oc1ccc2nc(-c3ccc(OCCOCCOc4ccc(-c5nc6ccc(OC(F)(F)F)cc6[nH]5)nc4)cn3)[nH]c2c1
Result :: 97

Query :: // repeat for C=CC(C)(O)CCC=C(C)C (centres undefined) and report
Result :: 104

Query :: COc1cc(N)c(Cl)cc1C(=O)CCC1CCN(CCNS(C)(=O)=O)CC1 ?
Result :: 101

Query :: Entry to check: CC(=O)NC1CCSC1=O (centres undefined)
Result :: 94.7
